Tested on: S. pneumoniae
method: MIC, broth microdilution
Assay type: cell-based, Streptococcus pneumoniae
settings: S. pneumoniae 07P390, c-ermB
Answer each item with its documented log10(MIC).
Recorded MIC (log10, µg/mL)

{"columns": ["molecule", "log10(MIC)"],
 "data": [
  ["CC[C@H]1OC(=O)[C@H](C)[C@@H](OC(=O)NCCCCCCC#Cc2ccc3c(=O)c(C(=O)O)cn(C4CC4)c3c2)[C@H](C)[C@@H](O[C@@H]2O[C@H](C)C[C@H](N(C)C)[C@H]2O)[C@](C)(OC)C[C@@H](C)C(=NOC)[C@H](C)[C@H]2OC(=O)O[C@@]21C [58c]", 0.00],
  ["CC[C@H]1OC(=O)[C@H](C)[C@@H](OC(=O)NCCOCCC#Cc2ccc3c(=O)c(C(=O)O)cn(C4CC4)c3c2)[C@H](C)[C@@H](O[C@@H]2O[C@H](C)C[C@H](N(C)C)[C@H]2O)[C@](C)(O)C[C@@H](C)CN(C)[C@H](C)[C@H]2OC(=O)O[C@@]21C [116c]", 0.60],
  ["CC[C@H]1OC(=O)[C@H](C)[C@@H](OC(=O)NCCCCCCC#Cc2ccc3c(=O)c(C(=O)O)cn(C4CC4)c3c2)[C@H](C)[C@@H](O[C@@H]2O[C@H](C)C[C@H](N(C)C)[C@H]2O)[C@](C)(O)C[C@@H](C)CN(C)[C@H](C)[C@H]2OC(=O)O[C@@]21C [111c]", -0.30],
  ["CC[C@H]1OC(=O)[C@H](C)[C@@H](OC(=O)NCCCCC#Cc2ccc3c(c2)c(=O)c(C(=O)O)cn3C2CC2)[C@H](C)[C@@H](O[C@@H]2O[C@H](C)C[C@H](N(C)C)[C@H]2O)[C@](C)(O)C[C@@H](C)CN(C)[C@H](C)[C@H]2OC(=O)O[C@@]21C [109a]", 2.41],
  ["CC[C@H]1OC(=O)[C@H](C)[C@@H](OC(=O)NCCCOCCC#Cc2ccc3c(c2)c(=O)c(C(=O)O)cn3C2CC2)[C@H](C)[C@@H](O[C@@H]2O[C@H](C)C[C@H](N(C)C)[C@H]2O)[C@](C)(O)C[C@@H](C)CN(C)[C@H](C)[C@H]2OC(=O)O[C@@]21C [117a]", 2.71]
]}

Working through the 2 molecules below one at a time, give log10(MIC) for each.
1. CC[C@H]1OC(=O)[C@H](C)[C@@H](OC(=O)NCCCCCCCc2ccc3c(c2)c(=O)c(C(N)=O)cn3C2CC2)[C@H](C)[C@@H](O[C@@H]2O[C@H](C)C[C@H](N(C)C)[C@H]2O)[C@](C)(OC)C[C@@H](C)C(=NOC)[C@H](C)[C@H]2OC(=O)O[C@@]21C [61b]
2. CC[C@H]1OC(=O)[C@H](C)[C@@H](OC(=O)NCCCCCCC#Cc2ccc3c(=O)[nH]cnc3c2)[C@H](C)[C@@H](O[C@@H]2O[C@H](C)C[C@H](N(C)C)[C@H]2O)[C@](C)(OC)C[C@@H](C)C(=O)[C@H](C)[C@H]2NC(=O)O[C@@]21C [88k]

RESULT:
1: 1.20; 2: 2.11
